Answer each item with its documented pIC50.
# Tested on: Trypanosoma cruzi
# ASSAY_TEXT: Antiparasitic activity against Trypanosoma cruzi 320I04 intracellular amastigotes infected in african green monkey Vero cells after 72 hrs
# Type: functional, organism-based
# RECORDED_CONDITIONS: 320I04, Vero
Answers are plain numbers, as −log10 of the molar value.

# TEST_SMILES, RECORDED_RESULT
rows = [
    ("Clc1cccc([C@@H]2C[C@@H]3Cc4ccc5ccccc5c4N2O3)c1", 4.88),
]

Q) // fetch Trypanosoma cruzi pIC50 for O[C@@H]1Cc2ccc3ccccc3c2N[C@H](c2ccc(F)cc2)C1
A) 4.83

----------
What Ratio CC50/IC50 was measured for each of the following?
# ASSAY_TEXT: Selectivity index, ratio of CC50 for african green monkey Vero cells to IC50 for Trypanosoma cruzi 320I04 epimastigotes
# Type: functional

Dear colleague, could you please provide Ratio CC50/IC50 for the molecules listed below?
1. c1ccc([C@@H]2C[C@@H]3Cc4ccc5ccccc5c4N2O3)cc1
2. O[C@@H]1Cc2ccc3ccccc3c2N[C@H](c2ccc(Br)cc2)C1
3. Brc1ccc([C@@H]2C[C@@H]3Cc4ccc5ccccc5c4N2O3)cc1
4. O[C@@H]1Cc2ccc3ccccc3c2N[C@H](c2cccc(Br)c2)C1
5. Clc1ccc([C@@H]2C[C@@H]3Cc4ccc5ccccc5c4N2O3)cc1

A)
1. 6.3
2. 6.5
3. 21.9
4. 4.6
5. 7.4

----------
# ASSAY_TEXT: Cytotoxicity against african green monkey Vero cells after 72 hrs by MTT assay
# Type: cell-based
# RECORDED_CONDITIONS: chlorocebus sabaeus
Record form. Attribute: CC50 at 72 h. Fill in for each entry.
One number for each entry, in µM.

# COMPOUND, RECORDED_RESULT
rows = [
    ("O[C@@H]1Cc2ccc3ccccc3c2N[C@H](c2ccc(Cl)cc2Cl)C1", 45.4),
    ("O[C@@H]1Cc2ccc3ccccc3c2N[C@H](c2cccc(Cl)c2)C1", 30.7),
]

// batch mode: one CC50 at 72 h value per listed entry
1. Clc1ccccc1[C@@H]1C[C@@H]2Cc3ccc4ccccc4c3N1O2
2. Clc1ccc([C@@H]2C[C@@H]3Cc4ccc5ccccc5c4N2O3)cc1
3. Cc1cccc([C@@H]2C[C@H](O)Cc3ccc4ccccc4c3N2)c1

A)
37.2
287
87.4

----------
Answer each item with its documented CC90 at 72 h.
# ASSAY_TEXT: Cytotoxicity against african green monkey Vero cells after 72 hrs by MTT assay
# Format: cell-based
# RECORDED_CONDITIONS: chlorocebus sabaeus

# COMPOUND, CC90 at 72 h
records = [
    ("O[C@@H]1Cc2ccc3ccccc3c2N[C@H](c2ccccc2)C1", "> 268 µM"),
    ("Clc1ccc([C@@H]2C[C@@H]3Cc4ccc5ccccc5c4N2O3)cc1", "> 300 µM"),
    ("Clc1ccccc1[C@@H]1C[C@@H]2Cc3ccc4ccccc4c3N1O2", "> 300 µM"),
]

Quick request: CC90 at 72 h for each listed item, please.
1. CC1CS(=O)(=O)CCN1/N=C/c1ccc([N+](=O)[O-])o1 (configuration not stated) [NIFURTIMOX]
2. O[C@@H]1Cc2ccc3ccccc3c2N[C@H](c2ccc(F)cc2)C1

A)
1. > 300 µM
2. > 250 µM

Could I get CC90 at 72 h for every one of these entries?
1. O[C@@H]1Cc2ccc3ccccc3c2N[C@H](c2cccc(Br)c2)C1
2. Brc1ccc([C@@H]2C[C@@H]3Cc4ccc5ccccc5c4N2O3)cc1
3. c1ccc([C@@H]2C[C@@H]3Cc4ccc5ccccc5c4N2O3)cc1
4. Fc1ccc([C@@H]2C[C@@H]3Cc4ccc5ccccc5c4N2O3)cc1

A)
1. > 250 µM
2. > 250 µM
3. > 350 µM
4. > 300 µM

// each listed compound needs a value for CC90 at 72 h
1. O[C@@H]1Cc2ccc3ccccc3c2N[C@H](c2ccc(Cl)cc2)C1
2. Clc1ccc([C@@H]2C[C@@H]3Cc4ccc5ccccc5c4N2O3)c(Cl)c1
3. O=[N+]([O-])c1ccccc1[C@@H]1C[C@@H]2Cc3ccc4ccccc4c3N1O2
4. COc1cccc([C@@H]2C[C@H](O)Cc3ccc4ccccc4c3N2)c1

A)
1: > 250 µM; 2: > 250 µM; 3: > 300 µM; 4: > 200 µM

Lab note: each compound below needs its CC90 at 72 h filled in.
1. O[C@@H]1Cc2ccc3ccccc3c2N[C@H](c2cccc(Cl)c2)C1
2. Clc1cccc([C@@H]2C[C@@H]3Cc4ccc5ccccc5c4N2O3)c1
3. COc1cccc([C@@H]2C[C@@H]3Cc4ccc5ccccc5c4N2O3)c1
4. Cc1cccc([C@@H]2C[C@@H]3Cc4ccc5ccccc5c4N2O3)c1
5. Cc1cccc([C@@H]2C[C@H](O)Cc3ccc4ccccc4c3N2)c1
6. O[C@@H]1Cc2ccc3ccccc3c2N[C@H](c2ccccc2Cl)C1
7. O[C@@H]1Cc2ccc3ccccc3c2N[C@H](c2ccc(Br)cc2)C1

A)
1: > 200 µM; 2: > 300 µM; 3: > 300 µM; 4: > 300 µM; 5: > 250 µM; 6: > 250 µM; 7: > 200 µM

Required: CC90 at 72 h, one value per compound below.
1. O[C@@H]1Cc2ccc3ccccc3c2N[C@H](c2ccc(Cl)cc2Cl)C1
2. Brc1cccc([C@@H]2C[C@@H]3Cc4ccc5ccccc5c4N2O3)c1

A)
1: > 200 µM; 2: > 250 µM

----------
# ASSAY_TEXT: Cytotoxicity against african green monkey Vero cells after 72 hrs by MTT assay
# Assay type: cell-based
# RECORDED_CONDITIONS: chlorocebus sabaeus
Record form. Attribute: CC50 at 72 h. Fill in for each entry.
Answers are plain numbers, in µM.

# TEST_SMILES, RECORDED_RESULT
rows = [
    ("O[C@@H]1Cc2ccc3ccccc3c2N[C@H](c2ccc(Br)cc2)C1", 66.1),
    ("O[C@@H]1Cc2ccc3ccccc3c2N[C@H](c2ccc(F)cc2)C1", 100),
    ("COc1cccc([C@@H]2C[C@H](O)Cc3ccc4ccccc4c3N2)c1", 97.6),
    ("Clc1ccc([C@@H]2C[C@@H]3Cc4ccc5ccccc5c4N2O3)c(Cl)c1", 55),
    ("O[C@@H]1Cc2ccc3ccccc3c2N[C@H](c2ccc(Cl)cc2)C1", 95),
]

Now take the following compound into account.
Q) Need CC50 at 72 h, item O[C@@H]1Cc2ccc3ccccc3c2N[C@H](c2cccc(Br)c2)C1
A) 49.5

----------
Provide the recorded CC90 at 72 h for the entries that follow.
# ASSAY_TEXT: Cytotoxicity against human THP1 cells after 72 hrs by MTT assay
# Assay type: cell-based
# RECORDED_CONDITIONS: THP-1 cells

// worked examples, CC90 at 72 h included
# TEST_SMILES, RECORDED_RESULT
records = [
    ("Clc1ccc([C@@H]2C[C@@H]3Cc4ccc5ccccc5c4N2O3)c(Cl)c1", "> 250 µM"),
    ("Brc1cccc([C@@H]2C[C@@H]3Cc4ccc5ccccc5c4N2O3)c1", "> 250 µM"),
]

Now examine the next entry.
Q) Could you share which CC90 at 72 h value was measured for COc1cccc([C@@H]2C[C@@H]3Cc4ccc5ccccc5c4N2O3)c1 ?
A) > 300 µM

----------
So I've got a bunch of molecules here, and I need their CC50 at 72 h values.
# ASSAY_TEXT: Cytotoxicity against human THP1 cells after 72 hrs by MTT assay
# Assay type: cell-based
# RECORDED_CONDITIONS: THP-1 cells

Solved cases (3 shown):
# TEST_SMILES, RECORDED_RESULT
records = [
    ("c1ccc([C@@H]2C[C@@H]3Cc4ccc5ccccc5c4N2O3)cc1", "> 350 µM"),
    ("Clc1ccccc1[C@@H]1C[C@@H]2Cc3ccc4ccccc4c3N1O2", "> 300 µM"),
    ("COc1cccc([C@@H]2C[C@@H]3Cc4ccc5ccccc5c4N2O3)c1", "> 300 µM"),
]

Below are some molecules; for each one, tell me its CC50 at 72 h.
1. O=[N+]([O-])c1ccccc1[C@@H]1C[C@@H]2Cc3ccc4ccccc4c3N1O2
2. Brc1cccc([C@@H]2C[C@@H]3Cc4ccc5ccccc5c4N2O3)c1
3. Clc1ccc([C@@H]2C[C@@H]3Cc4ccc5ccccc5c4N2O3)cc1
4. Cc1cccc([C@@H]2C[C@H](O)Cc3ccc4ccccc4c3N2)c1
5. Clc1cccc([C@@H]2C[C@@H]3Cc4ccc5ccccc5c4N2O3)c1
6. Clc1ccc([C@@H]2C[C@@H]3Cc4ccc5ccccc5c4N2O3)c(Cl)c1

A)
["> 300 µM", "> 250 µM", "> 300 µM", "89.9 µM", "> 300 µM", "> 250 µM"]

----------
Answer each item with its documented IC50.
# Test system: Leishmania chagasi
# ASSAY_TEXT: Antiparasitic activity against Leishmania chagasi MHOM/BR/74/PP75 promastigotes infected in human THP1 cells after 72 hrs
# RECORDED_CONDITIONS: MHOM/BR/74/PP75, THP-1, 72 h
Give bare numbers, in µM.

# TEST_SMILES, OUTPUT_UNIT, IC50
data = [
    ("O[C@@H]1Cc2ccc3ccccc3c2N[C@H](c2ccc(Cl)cc2Cl)C1", "µM", 11),
    ("Brc1cccc([C@@H]2C[C@@H]3Cc4ccc5ccccc5c4N2O3)c1", "µM", 10.4),
]

// for each compound below, give its IC50
1. Brc1ccc([C@@H]2C[C@@H]3Cc4ccc5ccccc5c4N2O3)cc1
2. O[C@@H]1Cc2ccc3ccccc3c2N[C@H](c2ccccc2Cl)C1
3. c1ccc([C@@H]2C[C@@H]3Cc4ccc5ccccc5c4N2O3)cc1
4. O[C@@H]1Cc2ccc3ccccc3c2N[C@H](c2ccc(F)cc2)C1
5. O[C@@H]1Cc2ccc3ccccc3c2N[C@H](c2ccccc2)C1

A)
1: 73.4; 2: 30.6; 3: 21.2; 4: 21; 5: 46

For each of the compounds below, note its IC50.
1. Clc1ccc([C@@H]2C[C@@H]3Cc4ccc5ccccc5c4N2O3)c(Cl)c1
2. COc1cccc([C@@H]2C[C@H](O)Cc3ccc4ccccc4c3N2)c1

A)
22.1
17.9

Give one value of IC50 per listed compound.
1. Clc1ccccc1[C@@H]1C[C@@H]2Cc3ccc4ccccc4c3N1O2
2. O[C@@H]1Cc2ccc3ccccc3c2N[C@H](c2ccc(Br)cc2)C1
3. COc1cccc([C@@H]2C[C@@H]3Cc4ccc5ccccc5c4N2O3)c1
4. O[C@@H]1Cc2ccc3ccccc3c2N[C@H](c2cccc(Br)c2)C1
5. O=[N+]([O-])c1ccccc1[C@@H]1C[C@@H]2Cc3ccc4ccccc4c3N1O2
6. Clc1ccc([C@@H]2C[C@@H]3Cc4ccc5ccccc5c4N2O3)cc1
7. O[C@@H]1Cc2ccc3ccccc3c2N[C@H](c2ccc(Cl)cc2)C1
8. Clc1cccc([C@@H]2C[C@@H]3Cc4ccc5ccccc5c4N2O3)c1

A)
1. 184
2. 18.5
3. 16.4
4. 18.3
5. 40.9
6. 35.4
7. 25.9
8. 32.7
